# target-of-assay: apo-human transferrin (apo-hTf) (Homo sapiens, UniProt P02787)
# Sequence (P02787 20-698): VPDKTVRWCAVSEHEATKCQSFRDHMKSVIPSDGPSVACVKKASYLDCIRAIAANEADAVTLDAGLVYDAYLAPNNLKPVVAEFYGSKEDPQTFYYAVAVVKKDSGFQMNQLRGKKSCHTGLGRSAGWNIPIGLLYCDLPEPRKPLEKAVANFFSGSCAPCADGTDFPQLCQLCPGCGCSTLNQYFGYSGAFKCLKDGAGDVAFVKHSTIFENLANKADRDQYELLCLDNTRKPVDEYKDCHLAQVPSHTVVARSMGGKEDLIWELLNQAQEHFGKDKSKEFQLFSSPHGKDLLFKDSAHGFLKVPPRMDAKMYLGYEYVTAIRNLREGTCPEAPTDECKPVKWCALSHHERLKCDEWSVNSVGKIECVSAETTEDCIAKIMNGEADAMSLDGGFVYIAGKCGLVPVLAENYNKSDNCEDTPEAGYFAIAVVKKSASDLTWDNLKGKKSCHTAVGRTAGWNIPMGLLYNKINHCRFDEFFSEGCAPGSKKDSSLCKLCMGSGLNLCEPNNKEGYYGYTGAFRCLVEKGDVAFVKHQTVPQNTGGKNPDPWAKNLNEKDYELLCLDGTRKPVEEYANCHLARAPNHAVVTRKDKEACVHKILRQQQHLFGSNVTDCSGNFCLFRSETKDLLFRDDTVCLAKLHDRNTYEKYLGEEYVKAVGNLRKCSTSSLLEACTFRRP
# protocol-text: Far-UV circular dichroism titration of apo-hTf, secondary structure content
# test-settings: compound concentration 1.2 (M)
value-type: other secondary structure content of apo-hTf

compound	result
[Cl-].[Cl-].[V+4].c1cc[cH-]c1.c1cc[cH-]c1 [Cp2VCl2]	20.4%
[Cl][Zr+2][Cl].c1cc[cH-]c1.c1cc[cH-]c1 [Cp2ZrCl2]	18.8%
N.N.[Cl][Pt][Cl] [(NH3)2Pt(II)Cl2, cis-diamminedichloroplatinum (II), reference compound]	19.2%
[Cl-].[Cl-].[Hf+4].c1cc[cH-]c1.c1cc[cH-]c1 [Cp2HfCl2]	19.2%
[Cl-].[Cl-].[Ti+4].c1cc[cH-]c1.c1cc[cH-]c1 [Cp2TiCl2, titanocene dichloride]	18.8%
C1CCCC1.C1CCCC1.[Cl][Nb][Cl] [Cp2NbCl2]	19.7%
[Cl-].[Cl-].[Mo+4].c1cc[cH-]c1.c1cc[cH-]c1 [Cp2MoCl2]	19.9%
C1CCCC1.C1CCCC1.[Cl][W][Cl] [Cp2WCl2]	18.6%
